Every entry's value here was drawn from paper PMC2702281.

molecular target: HLA-A*0201 molecules (Homo sapiens, UniProt P04439, D140Y/D185E/D98H/E176V/E277Q/G131W/G231S/I119V/I121R/I166T/I218V/L300P/L318F/N151K/N90K/P208A/P217A/Q86G/Q94H/R138H/R169H/T345S); assay: T2 cell surface HLA class I stabilization assay; type: cell-based; conditions: peptide 50 μg/ml; T2 cells; anti-HLA-A2 mAb BB7.2 staining; triplicate, mean ± SD; SD
QUANTITY: HLA-peptide binding affinity (%MFI increase ± SD)
Please don't drop the unit; write it after the number.

ALPSFQIPV [Peptide A2.2] = 74.5 ± 6.6 %MFI increase
YQALPSFQI [Peptide A2.9] = 10.2 ± 8.2 %MFI increase
FETDPDPFL [Peptide A2.7] = 8.2 ± 19.1 %MFI increase

Sure, the documented HLA-peptide binding affinity (%MFI increase ± SD) for GLVEQHSWM [Peptide A2.4] is 1.8 ± 9.9 %MFI increase

Query FETDPDPFLL [Peptide A2.6] yields HLA-peptide binding affinity (%MFI increase ± SD) of 22.5 ± 9.6 %MFI increase

Item: WLLEQKLQV [Peptide A2.1] | HLA-peptide binding affinity (%MFI increase ± SD): 38.8 ± 15.5 %MFI increase

The sequence listed as MMAAMVLTSL [Peptide A2.5] shows HLA-peptide binding affinity (%MFI increase ± SD) equal to 10.5 ± 12.0 %MFI increase

Looking up KVLRSIVGI [Peptide A2.10] , I see its HLA-peptide binding affinity (%MFI increase ± SD) listed as 4.4 ± 9.9 %MFI increase

Please fill in: HLA-peptide binding affinity (%MFI increase ± SD) reported for SMTGLPLSAL [Peptide A2.8] = -1.5 ± 2.5 %MFI increase

Quick note, HLA-peptide binding affinity (%MFI increase ± SD) for FQPGQKVYV [Peptide A2.3] landed at 2.7 ± 9.4 %MFI increase
